Quick list: LD50 at 168 h per entry.
- test: Acute toxicity in mice
- Set-up: species or system ddy male mice
- study-conditions: mouse, in vivo, ip; Intra-peritoneal administration, suspended in 5% Arabic gum solution, mortality observed for 7 days

>  <compound>
CC(C)OC(=O)c1ccc(Br)c(S(N)(=O)=O)c1

>  <value-measured>
> 1000 mg/kg

$$$$
>  <compound>
CCNS(=O)(=O)c1cc(C(=O)O)ccc1Cl

>  <value-measured>
> 1000 mg/kg

$$$$

Read the next record carefully.
Task: What does the record list as LD50 at 168 h for COC(=O)c1ccc(F)c(S(N)(=O)=O)c1 [Compound 8, 3-aminosulfonyl-4-fluoromethylbenzoate] ?
Output: > 1000 mg/kg

---

Overview of reported Survival rate across a group of compounds:
- System: influenza A0 virus
- test: Protective action against the death of mice infected with influenza A0 virus
- Type: in vivo, ICR female mice
- study-conditions: intraperitoneal, 100 mg/kg, twice a day for 14 days, survivors at 15th day
Quick note: give the figure in %, leave out the unit.

>  <molecule-smiles>
CC(C)NS(=O)(=O)c1cc(C(=O)O)ccc1Cl

>  <Survival rate / %>
40

$$$$
>  <molecule-smiles>
CN(C)S(=O)(=O)c1cc(C(=O)O)ccc1Cl

>  <Survival rate / %>
40

$$$$
>  <molecule-smiles>
O=C(O)c1ccc(Cl)c(S(=O)(=O)Nc2ccccc2)c1

>  <Survival rate / %>
40

$$$$

Task: Please look up its Survival rate: CCNS(=O)(=O)c1cc(C(=O)O)ccc1Cl
Output: 40

Task: Using the record for CNS(=O)(=O)c1cc(C(=O)O)ccc1Cl , report its Survival rate.
Output: 40

Task: # Survival rate lookup, item O=C(O)c1ccc(Cl)c(S(=O)(=O)N2CCOCC2)c1
Output: 50
